Assay: Human HepG2 cell viability assay in 384 well format
Format: toxicity, cell-based
Design: dose 125 nL, time 70.5 hour; concentration not given beside the values
Conditions: HepG2 cells, read-out: Inhibition

{"compound": "CCOCC1CCN(C(=O)Nc2ccc3c(c2)CCCN3C)C1 (stereo not drawn)", "cytotoxicity at 70.5 h (%)": -10.4}
{"compound": "CN(C)Cc1nc(C(C)(C)NC(=O)C2CC(=O)N(CC3CC3)C2)no1 (stereo not drawn)", "cytotoxicity at 70.5 h (%)": 19.5}
{"compound": "c1csc(CN2CCCN(c3ncnc4[nH]ccc34)CC2)c1", "cytotoxicity at 70.5 h (%)": -13.6}
{"compound": "O=C(c1n[nH]c(=O)c2ccccc12)N1CCCC1Cn1cccn1 (stereo not drawn)", "cytotoxicity at 70.5 h (%)": -8.16}
{"compound": "O=C(NCc1nccs1)N1CCOC(c2ccccc2Cl)C1 (stereo not drawn)", "cytotoxicity at 70.5 h (%)": 10.9}
{"compound": "CCS(=O)(=O)NC(CCSC)C(=O)Nc1ccccc1C (stereo not drawn)", "cytotoxicity at 70.5 h (%)": -92}
{"compound": "CS(=O)(=O)N1C[C@@H](F)[C@@H](OCc2nc3ccccc3o2)C1", "cytotoxicity at 70.5 h (%)": 14.3}
{"compound": "CC(C(=O)Nc1cccc(C(F)(F)F)c1)N(C)CCN1CCOCC1 (stereo not drawn)", "cytotoxicity at 70.5 h (%)": -8.82}
{"compound": "CN(C)CC(=O)N1Cc2nnn(C)c2C(COCC2CC2)C1 (stereo not drawn)", "cytotoxicity at 70.5 h (%)": -11.8}
{"compound": "Cc1nc2c(c(C)c1CC(=O)Nc1ccccc1F)c(=O)[nH]n2C", "cytotoxicity at 70.5 h (%)": 4.76}
{"compound": "O=C(C(c1ccccc1)N1CCc2cncnc2C1)N1CCCCC1 (stereo not drawn)", "cytotoxicity at 70.5 h (%)": 7.48}
{"compound": "CN(Cc1cccnc1)c1nccc(N2CCN[C@H]3CS(=O)(=O)C[C@H]32)n1", "cytotoxicity at 70.5 h (%)": -3.96}
{"compound": "CCCN1CCCC2(CCN(Cc3noc(C4CCCC4)n3)C2)C1=O (stereo not drawn)", "cytotoxicity at 70.5 h (%)": 3.33}
{"compound": "CCCc1nc(CNC(C)Cn2cccn2)cs1 (stereo not drawn)", "cytotoxicity at 70.5 h (%)": 3.08}
{"compound": "Cc1ccccc1CN1CCC(CNc2ncnc3c2CCNCC3)C1 (stereo not drawn)", "cytotoxicity at 70.5 h (%)": 1.87}
{"compound": "NC(=O)NC1CCN(Cc2ccc(Br)c(F)c2)CC1", "cytotoxicity at 70.5 h (%)": -5.43}
{"compound": "Cc1cc(C(=O)NCc2c(C)nn(C)c2C)nc(N2CCCC2)n1", "cytotoxicity at 70.5 h (%)": -3.65}
{"compound": "CNC(=O)COc1cccc(CNC(=O)c2c(C)noc2C)c1", "cytotoxicity at 70.5 h (%)": -10.6}
{"compound": "COCC1CC2(CCN(C(=O)c3occc3C)CC2)CO1 (stereo not drawn)", "cytotoxicity at 70.5 h (%)": -6.11}
{"compound": "CN1CC[C@H](N(C)Cc2ccccc2)C[C@H](O)C1", "cytotoxicity at 70.5 h (%)": -10.5}
{"compound": "CC(C)NC(=O)CC1COC2(CCN(Cc3cccs3)CC2)C1 (stereo not drawn)", "cytotoxicity at 70.5 h (%)": -20.6}
{"compound": "COc1ccc(-c2cc(CC3(NCc4ccc(C)o4)COC3)no2)cc1", "cytotoxicity at 70.5 h (%)": 6.13}
{"compound": "Cc1noc(C)c1-c1nc(C2CCCN(CCC(N)=O)C2)ccc1CO (stereo not drawn)", "cytotoxicity at 70.5 h (%)": -6.81}
{"compound": "Cc1noc(C)c1C(=O)NCCSCc1cccs1", "cytotoxicity at 70.5 h (%)": 0.282}
{"compound": "CC1CCN(c2ncc3c(n2)CN(c2ccc4c(c2)OCO4)C3=O)CC1", "cytotoxicity at 70.5 h (%)": -6.45}
{"compound": "COC(=O)C(NC(=O)c1ccc(NC2CC2)nc1)c1ccccc1 (stereo not drawn)", "cytotoxicity at 70.5 h (%)": -5.38}
{"compound": "O=C(NS(=O)(=O)Cc1ccc(F)cc1)C1CCc2ccccc21 (stereo not drawn)", "cytotoxicity at 70.5 h (%)": 3.78}
{"compound": "Cc1cc2nc(C(C)C)cc(NC(C)c3nncn3C3CCCC3)n2n1 (stereo not drawn)", "cytotoxicity at 70.5 h (%)": -11.7}
{"compound": "CCc1nn(C)c(Cl)c1CN(CC)Cc1cnn(CC)c1", "cytotoxicity at 70.5 h (%)": -6.7}
{"compound": "CN(CCCNC(=O)C1CCCN(C(N)=O)C1)S(C)(=O)=O (stereo not drawn)", "cytotoxicity at 70.5 h (%)": -9.57}
{"compound": "CCc1nc(CNC(=O)Nc2ccc(C(=O)NC)cc2C)cs1", "cytotoxicity at 70.5 h (%)": -22.3}
{"compound": "CNC(=O)c1ccc(C(=O)N2CCC(Nc3cccnn3)CC2)cn1", "cytotoxicity at 70.5 h (%)": -4.73}
{"compound": "Cn1ncc2c(NCC3CCS(=O)(=O)C3)nc(-c3ccncc3)nc21 (stereo not drawn)", "cytotoxicity at 70.5 h (%)": 21.3}
{"compound": "COc1ccc(OCc2nc(C(=O)N3CC(O)C3)co2)cc1", "cytotoxicity at 70.5 h (%)": -8.01}
{"compound": "c1cncc(-c2noc(CCNc3ncnc4c3CCNCC4)n2)c1", "cytotoxicity at 70.5 h (%)": -7.7}
{"compound": "CC(C)(NCc1cccc(O)c1)c1ccc2c(c1)OCO2", "cytotoxicity at 70.5 h (%)": -11.8}
{"compound": "CC(C)NC(=O)N1C[C@@H](F)[C@@H](OCc2nc3ccccc3o2)C1", "cytotoxicity at 70.5 h (%)": -0.085}
{"compound": "CCOc1ccc([C@@H]2N[C@H](c3nccs3)Cc3ccsc32)cc1OC", "cytotoxicity at 70.5 h (%)": -7.07}
{"compound": "CN1CC2(CCN(CC3CC3)CC2)COc2ccccc2S1(=O)=O", "cytotoxicity at 70.5 h (%)": -1.33}
{"compound": "Cc1nc(C)n(CC2CCCN2CCc2ccncc2)n1 (stereo not drawn)", "cytotoxicity at 70.5 h (%)": 18.1}
{"compound": "CCn1cnnc1CNC(=O)c1cc(Cl)ccc1I", "cytotoxicity at 70.5 h (%)": -10.9}
{"compound": "CC(NCCn1cccn1)c1cc(F)ccc1F (stereo not drawn)", "cytotoxicity at 70.5 h (%)": -3.98}
{"compound": "Cc1cc(C)n(CC2CCCCN2CC(=O)Nc2nccs2)n1 (stereo not drawn)", "cytotoxicity at 70.5 h (%)": -5.53}
{"compound": "CCn1cc(-c2cc(C(F)(F)F)nc(NC3CCCC3)n2)c(C)n1", "cytotoxicity at 70.5 h (%)": -6.79}
{"compound": "Cc1nnc(NCCc2nc3ccc(F)cc3n2C)c(C#N)c1C", "cytotoxicity at 70.5 h (%)": 1.4}
{"compound": "CCCc1nnc(N(C)CC2CCN(CC(C)C)CC2)o1", "cytotoxicity at 70.5 h (%)": -7.76}
{"compound": "NS(=O)(=O)c1cnc(NCC2(c3cccc(F)c3)CCOCC2)s1", "cytotoxicity at 70.5 h (%)": -0.912}
{"compound": "CCc1cc(C(=O)N2CCC(c3cc4ncccc4cn3)CC2)no1", "cytotoxicity at 70.5 h (%)": 18.3}
